Entries and their TGI values follow.
Test system: PC-3 prostate
Assay: NCI tumour cell line growth inhibition, 48 h

| molecule | TGI |
| --- | --- |
| C/C(=C\c1ccc(Cl)c(Cl)c1)[N+](=O)[O-] | 3.81 µM |
| Cc1ccc(S(=O)(=O)N2CCCC2C(=O)O[C@H]2CC[C@H]3CC=C[C@H]32)cc1 (stereo not given in full) | > 100 µM |
| C=CC[C@@H]1C(=O)[C@@]2(O[Si](C(C)C)(C(C)C)C(C)C)CC[C@@H]1C[C@H]2NC(=O)OCC(Cl)(Cl)Cl | > 100 µM |
| CC1(C)CC(=O)c2c(nc(SSc3nc4c(c(-c5ccccc5)c3C#N)C(=O)CC(C)(C)C4)c(C#N)c2-c2ccccc2)C1 | > 10 µM |
| CCOC(=O)c1cc2c(n1Cc1ccccc1)-c1oncc1CC2 | 94.1 µM |
| O=C(c1ccc(Br)cc1)n1c2ccc(Br)cc2c2nc3ccccc3nc21 | > 100 µM |
| Cc1cc(NS(=O)(=O)c2ccc(Nc3c4ccccc4nc4ccc(C(=O)Nc5ccc(S(N)(=O)=O)cc5)cc34)cc2)no1 | > 100 µM |
| CN(C[C@@H]1COCCO1)S(=O)(=O)Nc1ccc2ccc3ncc(-c4cnn(C)c4)cc3c(=O)c2c1 | > 100 µM |
| COc1cccc(C2C3=C(COC3=O)Oc3cc4c(cc32)OCO4)c1 (stereo not given) | > 100 µM |
| COc1ccc(C2SC(C)C(=O)N2c2nc(-c3nc(-c4ccc(Cl)cc4)cs3)cs2)cc1 (stereo not given) | > 100 µM |
| NC(Cc1ccccc1)(C(=O)O)C(=O)O | > 100 µM |
| O=C(OCc1ccc2c(Cl)cc(Cl)c(O)c2n1)c1cc2ccccc2[nH]1 | 0.936 µM |
| C=C1C(=O)O[C@H]2[C@H]1CC/C(COC(=O)c1ccc(C#N)cc1)=C\CC[C@@]1(C)O[C@@H]21 | 15.6 µM |
| O=C(/C=C/c1ccc(O)c(O)c1O)OCCc1ccccc1 | > 100 µM |
| Cn1c2c(c3ccccc31)CC(=S)N1CCCC(CC2O)C1 (stereo not given) | > 100 µM |
| C#CCOc1cccc(Nc2ncnc3ccc(NC(=O)CCl)cc23)c1 | 12.4 µM |
| O=C1c2scc(-c3ccc(Cl)cc3)c2-n2cccc21 | > 100 µM |
| O=C(c1ccccc1)c1nc2ccc(C(F)(F)F)cc2[n+]([O-])c1C(F)(F)F | > 100 µM |
| COc1cc2c(cc1OCc1ccccc1)NC(=S)[C@@H]1CCCN1C2=S | > 100 µM |
| COC(=O)[C@@H]1C[C@H]([Se]c2ccccc2)CN1C(=O)OCc1ccccc1 | > 100 µM |

The measurements presented in this section are drawn from PubChem BioAssay (NCI).
